# test.details: Decomposition of pure doxorubicin in PBS (pH 6.9/25° C.) at 37° C.
# Format: physicochemical
# assay.setup: phosphate buffer (PBS), pH 6.9; normal phosphate buffer, exponential decomposition during first ten days; read-out: half decay (T1/2) of doxorubicin (converted)
property.name: half-life

So for COc1cccc2c1C(=O)c1c(O)c3c(c(O)c1C2=O)C[C@@](O)(C(=O)CO)C[C@@H]3O[C@H]1C[C@H](N)[C@H](O)[C@H](C)O1 , the logged half-life turned out to be ~4.5 days
